Test system: G-clamp-N3 (biotin conjugate)
ASSAY: pull-down binding Z-score (relative to library population); higher = stronger binding
CONDITION_SUMMARY: RNA library: Library-1 (pre-miRNA loops + repeats)
Readings of pull-down binding Z-score for the listed sequences
// print number alone

sequence_entry="UUUCCCAUUAUUUUAAUUGCGAA [hsa-mir-570]" target="G-clamp-N3 (biotin conjugate)" observed_value=-0.975
sequence_entry="AGAGCGUGGGCUGGGGUUCAGGGACACCCUCU [hsa-mir-1229]" target="G-clamp-N3 (biotin conjugate)" observed_value=1.46
sequence_entry="AAGCAGGGUCGGGCCUGGUU [hsa-mir-7641-2]" target="G-clamp-N3 (biotin conjugate)" observed_value=0.553
sequence_entry="AGGGCAGGGGUGUGGCU [hsa-mir-4751]" target="G-clamp-N3 (biotin conjugate)" observed_value=0.725
sequence_entry="CAGGGGUUCUGAUAAACCCUUC [hsa-mir-6738]" target="G-clamp-N3 (biotin conjugate)" observed_value=-0.182
sequence_entry="AGGUGCUAGGUCGGCCUCGGC [hsa-mir-5787]" target="G-clamp-N3 (biotin conjugate)" observed_value=1.28
sequence_entry="GGGGUGGCUGCGGGCCUUCUGAAGGUCUCCC [hsa-mir-662]" target="G-clamp-N3 (biotin conjugate)" observed_value=0.76
sequence_entry="GGGAGCAUGAACAAUGUUUCUCACUCCC [hsa-mir-3162]" target="G-clamp-N3 (biotin conjugate)" observed_value=1.01

For the sequence CUCCUCCGCUGCCGCCGGGAGAG [hsa-mir-4785] , give its reported pull-down binding Z-score. 0.0193

For the sequence UUUCUGUUGUCUGAAAGAAGAGAAA [hsa-mir-526b_518a-1] , give its reported pull-down binding Z-score. 0.288

For the sequence GGCAGGGUCCUCCAGCUCAUUCCUCCUGCC [hsa-mir-6829] , give its reported pull-down binding Z-score. 0.723

----------
System: TO-3-N3 (biotin conjugate)
ASSAY: pull-down binding Z-score (relative to library population); higher = stronger binding
CONDITION_SUMMARY: RNA library: Library-2
Use condition met when the recorded pull-down binding Z-score is no lower than -0.4; use condition not met when it is lower.

The examples below pair each entry with its known result.
sequence_entry=AAUGUAGUAGAAUUAUACCUGCACGUGCUCGUGUAGAGUGUUUUGAUAAAUUCAAAGUGAAUUCAACAUUAGAACAGUAUGUCUUUUGUACUGUAAAUGCAUU group_label="condition met"
sequence_entry="GGCGUGGACAACUUGCU [hsa-mir-3943]" group_label="condition met"
sequence_entry="AAGCAGGGUCGGGCCUGGUU [hsa-mir-7641-2]" group_label="condition met"
sequence_entry="UUUUGCAGUUUUUUUAAGUAAUUGCAAAA [hsa-mir-548f-3]" group_label="condition not met"
sequence_entry="AUUCUGAUGAUCACCUAGCCAGAAU [hsa-mir-5583-2]" group_label="condition met"

Reported pull-down binding Z-score reaches at least -0.4 for UUUUGCUGUUACUUUUAAUGGCAAAA [hsa-mir-548az] ? condition not met

Reported pull-down binding Z-score reaches at least -0.4 for UGCCUUCAAACUCAACAUUAAAUUGUUGGGUGUUGGUGGCA ? condition not met

Reported pull-down binding Z-score reaches at least -0.4 for AAUGUUUUAUUCUCUACAGUGUUCCCACUUACAAGUUUUGGACCACUAGUGAGAAAAAUAUU [DMSMaPseq_invitro_SARS-CoV-2_Motif_260] ? condition not met

----------
System: TO-N3-2 (biotin conjugate)
ASSAY: pull-down binding Z-score (relative to library population); higher = stronger binding
CONDITION_SUMMARY: RNA library: Library-2
Returns the class for an entry based on its pull-down binding Z-score. Class ranges: 1 = under -0.5, 2 = from -0.5 up to 0.4, 3 = 0.4 and over

The examples below pair each entry with its known result.
sequence_entry="AUGUGUUGUGAUGGCACAGCGU [hsa-mir-592]" group_label=2
sequence_entry="CUGCUUUUAAAGGUAAUGGCAA [hsa-mir-548ag-1]" group_label=2
sequence_entry="CUUUGGUGGCUAUGGUUGACUGGGCCACUCAGAG [hsa-mir-4468]" group_label=3

Kindly identify the class of GCAUUUUAUCUAAGAUACACACAAAGCAAAUGC [hsa-mir-4439] . 1

Kindly identify the class of UACCAGACUAUAACACAUAUAAAAAUACGUGUGAUGGUA [DMSMaPseq_invitro_SARS-CoV-2_Motif_221] . 1

Kindly identify the class of GGGGUGUACAUCAAUACUGCCUU [IAV_invivo_PA_3_Motif_19+IAV_invivo_PA_3_Motif_19] . 3

Kindly identify the class of GCUGUAGUGUUACUAAUCCUUAUGACAGC . 2

Kindly identify the class of CAGUGCACCUUCAUGAACCG [hsa-mir-938] . 3

Kindly identify the class of GCCACUUGCGAAUUUUGUGGC . 1

Kindly identify the class of AUCUUUCUGUGCUUUUGCUGUAGAUGCUGCUAAAGCUUACAAAGAU . 2

----------
Test system: G-clamp-N3 (biotin conjugate)
ASSAY: pull-down binding Z-score (relative to library population); higher = stronger binding
CONDITION_SUMMARY: RNA library: Library-1 (pre-miRNA loops + repeats)
Returns the class for an entry based on its pull-down binding Z-score. Class ranges: bottom end: < -0.3; midrange: ≥ -0.3 and < 0.9; top end: ≥ 0.9

The examples below pair each entry with its known result.
sequence_entry="UUUCUUAAAUUUUAUAUAUUGGAA [hsa-mir-1284]" group_label="bottom end"
sequence_entry="UUUGCCUAUAAAAGUAAUGGCAAA [hsa-mir-548an]" group_label=midrange
sequence_entry="GUGACGCCGCGAAGUGCAC [hsa-mir-3147]" group_label="top end"
sequence_entry="AUUGAGUUACCUUUCUGACUUUCCCACU [hsa-mir-28]" group_label="bottom end"
sequence_entry="CUUGUGGUAUUAGUCCGCACAAG [hsa-mir-100]" group_label="top end"
sequence_entry="AGUGCAGUAUGGUGAAGUCAAUCUGUAAU [hsa-mir-590]" group_label="top end"
sequence_entry="GGCGGUGAAGCUCC [hsa-mir-4532]" group_label=midrange
sequence_entry="GGCCGUUUGAGAUGUCC [hsa-mir-3674]" group_label="bottom end"

Kindly identify the class of ACAUGCAGUAUUUGG [hsa-mir-1302-8] . top end

Kindly identify the class of UUGGCACAGGGAAGCGAGUCUGCCAA [hsa-mir-195] . top end

Kindly identify the class of UGUCUUUUUUUUUUUCUGAGACA [hsa-mir-1273c] . midrange

Kindly identify the class of CCCGUAGGACACCGAGGCUUAUGAAUAGGA [hsa-mir-6081] . bottom end

Kindly identify the class of ACCAUAUCUAAGCUAAUGUGGUGGU [hsa-mir-876] . midrange

----------
Readings of pull-down binding Z-score for the listed sequences
Tested on: TO-3-N3 (biotin conjugate)
ASSAY: pull-down binding Z-score (relative to library population); higher = stronger binding
CONDITION_SUMMARY: RNA library: Library-2
// print number alone

Example entries begin here.
sequence_entry="AGUGAAAUAAAGGUCCAUCUCCUGCCUAUUUAUUACUUUGCU [hsa-mir-1243]" observed_value=-0.671
sequence_entry="UUCCGGUGAUUAUCACAGCCAUGCCUUUACCUCCAGAA [hsa-mir-4493]" observed_value=-0.84
sequence_entry="AGAAGAACU [hsa-mir-378j]" observed_value=-0.279
sequence_entry="AGGCCGACGAGCAGCGCAUCCUCUUACCCGGCUA [hsa-mir-138-2]" observed_value=0.181
sequence_entry="GUCAUUUCCCAUCACUAAUGGC [hsa-mir-6815]" observed_value=-0.674

In the following, a different sequence is considered.
Jot down pull-down binding Z-score (TO-3-N3 (biotin conjugate)) of UACUUUACUCAGAGUA [SHAPE_invitro_SARS-CoV-2_Motif_368] . -1.06

----------
Test system: TO-3-N3-2 (biotin conjugate)
ASSAY: pull-down binding Z-score (relative to library population); higher = stronger binding
CONDITION_SUMMARY: RNA library: Library-2
READOUT_KIND: pull-down binding Z-score

Example entries begin here.
sequence_entry=GCAGACGGGCGAUUUUGUUAAAGCCACUUGC observed_value=0.604
sequence_entry="UGUUGGGGGGACA [hsa-mir-4262]" observed_value=1.63
sequence_entry=GUUCUUGAGUGUAAUGUGAAAACUACCGAAGUUGUAGGAGACAUUAUACUUAAACCAGC observed_value=0.0674
sequence_entry="CUAACAGGCCCCUGUCACCAUUAG [hsa-mir-5579]" observed_value=-0.144
sequence_entry="AAACUUGUGCCCUUUUGGUGAAGUUUUUAACGCCACCAGAUUUGCAUCUGUUU [SHAPE_invivo_SARS-CoV-2_Motif_425]" observed_value=-0.449
sequence_entry="CCUCACCUGCUGAGAG [hsa-mir-3670-3_3670-2_3670-1_3670-4]" observed_value=-0.133
sequence_entry="GUAUGAGUGCCACAGAGCCGUCAUAA [hsa-mir-9-3]" observed_value=-0.231
sequence_entry="UUUUGCUUGUGUCUCUCCGCUCUGAGCAAUC [hsa-mir-96]" observed_value=-0.0864

Jot down pull-down binding Z-score (TO-3-N3-2 (biotin conjugate)) of CAUACAUUUUGAAUAUGUAUG [hsa-mir-299] . -0.504

Jot down pull-down binding Z-score (TO-3-N3-2 (biotin conjugate)) of AGGUGCUAGGUCGGCCUCGGC [hsa-mir-5787] . 0.351

Jot down pull-down binding Z-score (TO-3-N3-2 (biotin conjugate)) of AUGGAGGCUGCUUCUCCUCAGCAGCUGCCAUA [hsa-mir-3651] . -0.382

// data source = the supplement of paper PMC11865577
